- system under test: Cannabinoid receptor 1 (Homo sapiens)
- assay comment: biochemical
- Format: cell-based, HEK293
For each entry below, report its Ki value.
Write the value in nM as a bare number.

// lookup Ki for CCCCCCC(C)(C)c1cc(O)c2c(c1)OC(C)(C)c1cnn(CCO)c1-2
19.1

Another molecule to check: CCCCCCC(C)(C)c1cc(OC)c2c(c1)OC(C)(C)c1cn[nH]c1-2
272

Another molecule to check: CCCCCCC(C)(C)c1cc(O)c2c(c1)OC(C)(C)c1cn(CCO)nc1-2
54.4

Another molecule to check: CCCCCCC(C)(C)c1cc(OCc2ccccc2)c2c(c1)OC(C)(C)c1cnn(CC)c1-2
614

Another molecule to check: CCCCCCC(C)(C)c1cc(OCCCO)c2c(c1)OC(C)(C)c1cnn(CC)c1-2
1610

Another molecule to check: CCCCCCC(C)(C)c1cc(OCc2ccccc2)c2c(c1)OC(C)(C)c1cn(C)nc1-2
702

Another molecule to check: CCCCCCC(C)(C)c1cc(OC)c2c(c1)OC(C)(C)c1cnn(CC)c1-2
5040

* * *

- system under test: Cannabinoid receptor 2 (Homo sapiens)
- Sequence (P34972 whole entry): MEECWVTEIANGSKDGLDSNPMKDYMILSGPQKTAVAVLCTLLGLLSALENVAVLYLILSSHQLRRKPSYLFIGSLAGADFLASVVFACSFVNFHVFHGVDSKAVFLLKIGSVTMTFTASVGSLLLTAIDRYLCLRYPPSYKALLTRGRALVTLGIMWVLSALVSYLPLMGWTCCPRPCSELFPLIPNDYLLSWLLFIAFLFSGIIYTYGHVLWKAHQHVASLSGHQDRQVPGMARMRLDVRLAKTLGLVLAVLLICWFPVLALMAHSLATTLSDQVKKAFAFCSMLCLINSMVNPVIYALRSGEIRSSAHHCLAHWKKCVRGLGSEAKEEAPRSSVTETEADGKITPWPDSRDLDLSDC
- assay comment: Agonist activity at human CB2 receptor expressed in HEK293 cell membranes assessed as inhibition of forskolin-stimulated cAMP accumulation after 60 mins by HTRF assay
Label Fulfilled when IC50 is strictly below 0.02 µM; otherwise label Not fulfilled.

Does the reported IC50 of the following compound sit strictly below 0.02 µM? CCCCCCC(C)(C)c1cc(OCCCO)c2c(c1)OC(C)(C)c1cnoc1-2
Fulfilled

Another compound to check: CCCC(C)(C)c1ccc2c(c1)OC(C)(C)[C@@H]1CC=C(C)C[C@@H]21
Not fulfilled

Another compound to check: CCCCCCC(C)(C)c1cc(OCCO)c2c(c1)OC(C)(C)c1cn[nH]c1-2
Not fulfilled

Another compound to check: CCCCCCC(C)(C)c1cc(O)c2c(c1)OC(C)(C)c1cnoc1-2
Not fulfilled

Another compound to check: CCCCCCC(C)(C)c1cc(OC)c2c(c1)OC(C)(C)c1cnoc1-2
Fulfilled

Another compound to check: CCCCCCC(C)(C)c1cc2c(c3c1CCCO3)-c1nn(CC)cc1C(C)(C)O2
Not fulfilled

* * *

- system under test: Cannabinoid receptor 1 (Homo sapiens, UniProt P21554)
- Sequence (P21554 whole entry): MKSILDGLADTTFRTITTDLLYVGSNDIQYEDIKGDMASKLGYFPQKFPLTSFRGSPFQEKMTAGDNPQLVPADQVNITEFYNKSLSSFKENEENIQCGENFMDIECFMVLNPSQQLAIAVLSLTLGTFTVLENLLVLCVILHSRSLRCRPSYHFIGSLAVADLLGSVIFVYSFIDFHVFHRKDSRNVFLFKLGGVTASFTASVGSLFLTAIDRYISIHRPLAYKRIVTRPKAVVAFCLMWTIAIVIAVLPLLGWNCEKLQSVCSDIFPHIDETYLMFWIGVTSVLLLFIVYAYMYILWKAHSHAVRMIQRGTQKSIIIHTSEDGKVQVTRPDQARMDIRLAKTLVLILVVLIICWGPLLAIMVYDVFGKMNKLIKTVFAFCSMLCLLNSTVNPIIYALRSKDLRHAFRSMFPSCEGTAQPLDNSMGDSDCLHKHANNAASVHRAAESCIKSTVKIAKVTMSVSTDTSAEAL
- assay comment: biochemical
- Type: cell-based, HEK293
- stated conditions: hek293
Label Condition met when Ki is strictly below 10 nM; otherwise label Condition not met.

Does the reported Ki of the following compound sit strictly below 10 nM? CCCCCCC(C)(C)c1cc(O)c2c(c1)OC(C)(C)c1cnn(CC)c1-2
Condition met

Another compound to check: CCCCCCC(C)(C)c1cc(O)c2c(c1)OC(C)(C)c1cnn(-c3ccc(Cl)cc3Cl)c1-2
Condition met

Another compound to check: CCCCCCC(C)(C)c1cc(O)c2c(c1)OC(C)(C)c1cnn(-c3ccc(Cl)c(Cl)c3)c1-2
Condition not met

Another compound to check: CCCCCCC(C)(C)c1cc(O)c2c(c1)OC(C)(C)c1cn(C)nc1-2
Condition not met

Another compound to check: CCCCCCC(C)(C)c1cc(O)c2c(c1)OC(C)(C)c1cn(CC)nc1-2
Condition not met

Another compound to check: CCCCCCC(C)(C)c1cc(O)c2c(c1)OC(C)(C)c1cn[nH]c1-2
Condition not met
